biological target: cloned human or rodent CNS receptors, channels, and transporters (PDSP panel) (Homo sapiens); construct: expressed in transfected cells; test: PDSP GPCR panel primary binding assays at 10 μM; settings: 5-HT2B; primary assay, replicate 3
Listed next: entries and their corresponding Inhibition 3.
// return numeric value only (unit: %, not printed)

COMPOUND: CCC(=O)N1CCC(NC(=O)Nc2ccc(OC(F)(F)F)cc2)CC1 [UNC10302681A, TPPU]
Inhibition 3 / %: 25.12

Query: State the recorded Inhibition 3 for this entry: CNc1nc(C)nc(N[C@H]2CCC[C@@H](C(=O)NCc3ccc(C#N)cc3C(F)(F)F)C2)n1 [UNC10302679A, GSK2256294A]
Result: -26.48

Query: Field entry: O=C(NC1CC1)C(=O)C(Cc1ccccc1)NC(=O)[C@H]1CCC(=O)N1Cc1ccccc1 (stereo partly shown) [UNC10302676A, ABT-957 (Alicapistat)]
Result: -45.78

Query: CC(=O)N1CCC(NC(=O)NC23CC4CC(CC(C4)C2)C3)CC1 [UNC10302683A, AR9281] ?
Result: -37.81

====

target: cloned human or rodent CNS receptors, channels, and transporters (PDSP panel) (Homo sapiens, UniProt P25021); construct: expressed in transfected cells; test: PDSP GPCR panel primary binding assays at 10 μM; settings: H2; primary assay, replicate 4
Sequence (P25021 whole entry): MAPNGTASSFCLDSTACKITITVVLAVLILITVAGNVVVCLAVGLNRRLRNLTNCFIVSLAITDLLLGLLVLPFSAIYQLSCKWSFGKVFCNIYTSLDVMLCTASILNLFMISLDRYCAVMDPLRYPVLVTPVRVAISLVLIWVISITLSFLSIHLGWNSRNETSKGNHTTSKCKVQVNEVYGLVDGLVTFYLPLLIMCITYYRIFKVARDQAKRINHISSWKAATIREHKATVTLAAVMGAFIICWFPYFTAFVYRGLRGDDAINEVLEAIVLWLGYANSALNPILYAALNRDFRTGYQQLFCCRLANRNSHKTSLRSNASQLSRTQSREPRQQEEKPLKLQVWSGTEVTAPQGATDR
READOUT TYPE: Inhibition 4 (%)
Numbers only; they are read as %.

COMPOUND: O=C(NC1CC1)C(=O)C(Cc1ccccc1)NC(=O)[C@H]1CCC(=O)N1Cc1ccccc1 (some centres unmarked) [UNC10302676A, ABT-957 (Alicapistat)]
UNITS: %
RESULT NUMBER: 15.07

Query: What value of measured Inhibition 4 is listed for CNc1nc(C)nc(N[C@H]2CCC[C@@H](C(=O)NCc3ccc(C#N)cc3C(F)(F)F)C2)n1 [UNC10302679A, GSK2256294A] ?
Result: -22.27

Query: Do the same for CC(=O)N1CCC(NC(=O)NC23CC4CC(CC(C4)C2)C3)CC1 [UNC10302683A, AR9281] please
Result: -37.45

Query: Another compound: CCC(=O)N1CCC(NC(=O)Nc2ccc(OC(F)(F)F)cc2)CC1 [UNC10302681A, TPPU]
Result: -32.59

Query: Try this compound too: O=c1oc2ccccc2cc1-c1cn2cc(Cc3ccc(F)cc3)sc2n1 [UNC10302680A, iMDK]
Result: -2.74

====

target: cloned human or rodent CNS receptors, channels, and transporters (PDSP panel) (Homo sapiens, UniProt P46098); construct: expressed in transfected cells; experiment: PDSP GPCR panel primary binding assays at 10 μM; conditions: 5-HT3; primary assay, replicate 3
Sequence (P46098 24-478): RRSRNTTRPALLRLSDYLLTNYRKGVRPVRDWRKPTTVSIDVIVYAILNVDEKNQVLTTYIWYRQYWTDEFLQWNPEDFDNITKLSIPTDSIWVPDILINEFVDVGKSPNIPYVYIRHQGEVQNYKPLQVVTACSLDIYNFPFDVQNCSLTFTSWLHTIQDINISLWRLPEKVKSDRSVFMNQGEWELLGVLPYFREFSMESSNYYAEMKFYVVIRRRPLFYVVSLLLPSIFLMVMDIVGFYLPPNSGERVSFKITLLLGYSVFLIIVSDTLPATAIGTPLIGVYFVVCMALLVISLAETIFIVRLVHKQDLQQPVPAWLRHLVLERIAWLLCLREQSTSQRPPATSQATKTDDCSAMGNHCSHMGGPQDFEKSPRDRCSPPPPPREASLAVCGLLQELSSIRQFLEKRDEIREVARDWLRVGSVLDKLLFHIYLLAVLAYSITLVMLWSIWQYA
READOUT TYPE: Inhibition 3 (%)
Dear colleague, please return just the value in %, with no unit written.

Record excerpt, results attached:
COMPOUND: CNc1nc(C)nc(N[C@H]2CCC[C@@H](C(=O)NCc3ccc(C#N)cc3C(F)(F)F)C2)n1 [UNC10302679A, GSK2256294A]
READOUT TYPE: Inhibition 3
RESULT NUMBER: -1.71
--
COMPOUND: CC(=O)N1CCC(NC(=O)NC23CC4CC(CC(C4)C2)C3)CC1 [UNC10302683A, AR9281]
READOUT TYPE: Inhibition 3
RESULT NUMBER: -1.71

Query: What measured Inhibition 3 goes with CCC(=O)N1CCC(NC(=O)Nc2ccc(OC(F)(F)F)cc2)CC1 [UNC10302681A, TPPU] ?
Result: 12.2

Query: Then O=C(NC1CC1)C(=O)C(Cc1ccccc1)NC(=O)[C@H]1CCC(=O)N1Cc1ccccc1 (stereo partly shown) [UNC10302676A, ABT-957 (Alicapistat)] ?
Result: -8.86

====

target: cloned human or rodent CNS receptors, channels, and transporters (PDSP panel) (Homo sapiens); construct: expressed in transfected cells; assay: PDSP GPCR panel primary binding assays at 10 μM; details: Receptor 5-HT3; primary assay, 10 μM
Quick reference for Inhibition 3 among some compounds
Numbers only; they are read as %.

Query: What value of Inhibition 3 has been reported for the following compound? O=c1oc2ccccc2cc1-c1cn2cc(Cc3ccc(F)cc3)sc2n1 [UNC10302680A, iMDK]
Result: 17.25

Query: Again, but for CCCCNc1ncc2c(-c3ccc(CN4CCN(C)CC4)cc3)cn([C@H]3CC[C@H](O)CC3)c2n1 [UNC2025C, UNC2025]
Result: 21.68

Query: Let us now turn to Cl.NC(=O)c1cnc(N[C@@H]2CCCC[C@@H]2N)nc1Nc1cccc(-n2nccn2)c1 [UNC10302682A, P505-15 (PRT06207 HCl)]
Result: 73.28

Query: What do we get for c1cn2cc(-c3ccc4cn[nH]c4c3)nc(Nc3ccc(N4CCOCC4)cc3)c2n1 [UNC10302678A, Entospletinib (GS-9973)] ?
Result: 21.06

====

Molecular target: cloned human or rodent CNS receptors, channels, and transporters (PDSP panel) (Homo sapiens, UniProt P08912)
Construct: expressed in transfected cells
Sequence (P08912 whole entry): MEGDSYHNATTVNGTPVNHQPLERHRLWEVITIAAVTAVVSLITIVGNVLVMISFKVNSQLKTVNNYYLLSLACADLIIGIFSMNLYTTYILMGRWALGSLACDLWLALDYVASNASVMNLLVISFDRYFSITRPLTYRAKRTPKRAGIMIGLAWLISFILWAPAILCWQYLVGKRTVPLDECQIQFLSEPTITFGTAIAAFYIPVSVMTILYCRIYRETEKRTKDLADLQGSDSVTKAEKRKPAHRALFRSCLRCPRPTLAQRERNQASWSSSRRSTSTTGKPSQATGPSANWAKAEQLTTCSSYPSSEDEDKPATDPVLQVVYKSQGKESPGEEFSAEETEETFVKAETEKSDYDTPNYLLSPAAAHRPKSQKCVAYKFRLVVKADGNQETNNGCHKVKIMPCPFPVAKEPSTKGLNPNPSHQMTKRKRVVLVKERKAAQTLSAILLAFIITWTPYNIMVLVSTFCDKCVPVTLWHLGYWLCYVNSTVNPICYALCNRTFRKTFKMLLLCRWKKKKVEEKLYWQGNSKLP
Test: PDSP GPCR panel primary binding assays at 10 μM
Settings: Receptor M5; primary assay, 10 μM
Experimental: GPCR panel: Screening against the receptors within the PDSP panel offers an assessment of off-target pharmacological activity at cloned human or rodent CNS receptors, channels, and transporters that could confound CNS-related phenotypes. A total of 46–47 primary binding assays were run in quadruplicate on these compounds at 10 μM, with follow-up secondary binding assays in 11-point dose-response in triplicate for select compounds versus select receptors. […]
READOUT TYPE: Inhibition 4
Answers without a unit are incomplete; give the number and then its unit.

Solved cases (3 shown):
COMPOUND: O=c1oc2ccccc2cc1-c1cn2cc(Cc3ccc(F)cc3)sc2n1 [UNC10302680A, iMDK]
Inhibition 4: -10.7%

COMPOUND: c1cn2cc(-c3ccc4cn[nH]c4c3)nc(Nc3ccc(N4CCOCC4)cc3)c2n1 [UNC10302678A, Entospletinib (GS-9973)]
Inhibition 4: 5.9%

COMPOUND: Cl.NC(=O)c1cnc(N[C@@H]2CCCC[C@@H]2N)nc1Nc1cccc(-n2nccn2)c1 [UNC10302682A, P505-15 (PRT06207 HCl)]
Inhibition 4: -1.55%

Next compound, Inhibition 4 to be filled in.
Query: Quick one: Inhibition 4 for CCCCNc1ncc2c(-c3ccc(CN4CCN(C)CC4)cc3)cn([C@H]3CC[C@H](O)CC3)c2n1 [UNC2025C, UNC2025] ?
Result: 10.93%

====

target: norepinephrine transporter (Homo sapiens, UniProt P23975); construct: expressed in transfected cells; experiment: PDSP secondary binding, norepinephrine transporter; set-up: species or system human or rodent; details: Receptor NET; secondary assay; read-out: Ki (nM) 1
Sequence (P23975 whole entry): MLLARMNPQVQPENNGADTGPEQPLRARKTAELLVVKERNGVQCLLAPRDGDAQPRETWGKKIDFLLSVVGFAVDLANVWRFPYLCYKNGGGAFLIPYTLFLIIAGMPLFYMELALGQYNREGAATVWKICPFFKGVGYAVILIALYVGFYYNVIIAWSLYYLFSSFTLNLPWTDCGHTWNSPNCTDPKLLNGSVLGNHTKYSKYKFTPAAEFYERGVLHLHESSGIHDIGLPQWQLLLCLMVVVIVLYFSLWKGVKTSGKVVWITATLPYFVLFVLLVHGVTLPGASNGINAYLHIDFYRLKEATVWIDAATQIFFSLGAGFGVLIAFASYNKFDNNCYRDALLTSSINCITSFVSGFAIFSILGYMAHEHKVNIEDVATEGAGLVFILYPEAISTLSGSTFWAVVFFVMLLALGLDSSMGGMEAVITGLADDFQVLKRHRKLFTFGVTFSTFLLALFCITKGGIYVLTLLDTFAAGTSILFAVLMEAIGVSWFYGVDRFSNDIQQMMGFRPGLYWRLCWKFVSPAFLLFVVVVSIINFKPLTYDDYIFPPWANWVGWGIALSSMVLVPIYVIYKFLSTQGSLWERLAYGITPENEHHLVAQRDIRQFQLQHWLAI
READOUT TYPE: Ki (nM)
Please state the figure in nM; there is no need to write the unit.

Query: Sample CCCCNc1ncc2c(-c3ccc(CN4CCN(C)CC4)cc3)cn([C@H]3CC[C@H](O)CC3)c2n1 [UNC2025C, UNC2025] — what was its Ki?
Result: 1400

====

# maps each entry to its Mean %
biological target: cloned human or rodent CNS receptors, channels, and transporters (PDSP panel) (Homo sapiens, UniProt P34969); construct: expressed in transfected cells; experiment: PDSP GPCR panel primary binding assays at 10 μM; conditions: Receptor 5-HT7A; primary assay, 10 μM; mean of Inhibition 1-4
Sequence (P34969 whole entry): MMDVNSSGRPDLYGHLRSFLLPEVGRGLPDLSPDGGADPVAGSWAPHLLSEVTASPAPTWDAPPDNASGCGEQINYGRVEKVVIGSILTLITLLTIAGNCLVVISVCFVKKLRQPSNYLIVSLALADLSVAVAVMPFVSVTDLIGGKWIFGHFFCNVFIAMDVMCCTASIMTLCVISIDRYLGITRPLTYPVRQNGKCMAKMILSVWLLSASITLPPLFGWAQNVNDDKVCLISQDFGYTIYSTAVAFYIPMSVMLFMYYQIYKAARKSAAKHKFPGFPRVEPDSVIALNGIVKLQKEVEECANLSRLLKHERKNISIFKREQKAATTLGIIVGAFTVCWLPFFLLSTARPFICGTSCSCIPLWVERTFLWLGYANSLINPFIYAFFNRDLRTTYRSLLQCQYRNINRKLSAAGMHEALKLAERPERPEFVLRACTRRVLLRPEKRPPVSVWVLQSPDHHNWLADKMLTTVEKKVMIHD
The response must be a number in % with no trailing unit.

Reference set (3 entries):
COMPOUND: c1cn2cc(-c3ccc4cn[nH]c4c3)nc(Nc3ccc(N4CCOCC4)cc3)c2n1 [UNC10302678A, Entospletinib (GS-9973)]
RESULT NUMBER: 15.84
--
COMPOUND: Cl.NC(=O)c1cnc(N[C@@H]2CCCC[C@@H]2N)nc1Nc1cccc(-n2nccn2)c1 [UNC10302682A, P505-15 (PRT06207 HCl)]
RESULT NUMBER: 40.33
--
COMPOUND: O=c1oc2ccccc2cc1-c1cn2cc(Cc3ccc(F)cc3)sc2n1 [UNC10302680A, iMDK]
RESULT NUMBER: 9.38

Now consider the entry below.
Query: Which value of Mean % has been reported for CCCCNc1ncc2c(-c3ccc(CN4CCN(C)CC4)cc3)cn([C@H]3CC[C@H](O)CC3)c2n1 [UNC2025C, UNC2025] in the records?
Result: -10.12

====

Molecular target: Alpha1D receptor (Homo sapiens, UniProt P25100)
Construct: expressed in transfected cells
Sequence (P25100 whole entry): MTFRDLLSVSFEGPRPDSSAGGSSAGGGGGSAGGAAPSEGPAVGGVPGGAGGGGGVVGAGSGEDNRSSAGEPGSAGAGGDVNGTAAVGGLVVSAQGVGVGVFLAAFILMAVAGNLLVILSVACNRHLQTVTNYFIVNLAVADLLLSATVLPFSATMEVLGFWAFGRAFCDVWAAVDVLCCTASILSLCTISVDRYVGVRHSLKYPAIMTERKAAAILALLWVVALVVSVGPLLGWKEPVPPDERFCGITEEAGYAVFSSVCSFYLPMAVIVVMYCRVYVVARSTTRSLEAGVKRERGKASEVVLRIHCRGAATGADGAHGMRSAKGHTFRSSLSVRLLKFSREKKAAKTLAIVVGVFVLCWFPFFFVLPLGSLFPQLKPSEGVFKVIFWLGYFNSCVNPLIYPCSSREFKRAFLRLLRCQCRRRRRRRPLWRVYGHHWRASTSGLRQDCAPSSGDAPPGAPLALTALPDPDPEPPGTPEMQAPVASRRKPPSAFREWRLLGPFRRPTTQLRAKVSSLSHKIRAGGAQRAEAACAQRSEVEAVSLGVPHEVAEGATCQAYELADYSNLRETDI
Assay: PDSP secondary binding, Alpha1D
Design: species or system human or rodent
Conditions: calculated Ki, secondary binding assay; read-out: Ki Alpha1D
Method: GPCR panel: Screening against the receptors within the PDSP panel offers an assessment of off-target pharmacological activity at cloned human or rodent CNS receptors, channels, and transporters that could confound CNS-related phenotypes. A total of 46–47 primary binding assays were run in quadruplicate on these compounds at 10 μM, with follow-up secondary binding assays in 11-point dose-response in triplicate for select compounds versus select receptors. […]
READOUT TYPE: Ki (µM)
Lab book: enter the figure in µM, no units written.

Query: Fill blank: measured Ki of the molecule CCCCNc1ncc2c(-c3ccc(CN4CCN(C)CC4)cc3)cn([C@H]3CC[C@H](O)CC3)c2n1 [UNC2025C, UNC2025] is ____.
Result: 5
